assay: Evaluation of pharmacokinetics in rats; type: in vivo; details: male, SD, rat, plasma, 1 mg/kg, oral gavage (PO, 1 mpk)
We begin with a simple list: items and their reported AUC(0-inf).

{"compound": "CNC(=O)c1ccc(N2CCN(Cc3cc4[nH]c(=O)c(C(F)(F)F)c(C)c4cn3)CC2)cn1 [Compound 2]", "AUC(0-inf), ng·h/mL": 19300}
{"compound": "CNC(=O)c1ccc(N2CCN(Cc3cnc4c(C)c(C(F)(F)F)c(=O)[nH]c4c3)CC2)cn1 [Compound 1]", "AUC(0-inf), ng·h/mL": 11300}
{"compound": "CNC(=O)c1ccc(C2=CCN(Cc3cnc4c(C)c(C(F)(F)F)c(=O)[nH]c4c3)CC2)cn1 [Compound 14]", "AUC(0-inf), ng·h/mL": 19200}
{"compound": "CCc1cc2ncc(CN3CCN(c4ccc(C(=O)NC)nc4)CC3)cc2[nH]c1=O [AZD5305, reference compound]", "AUC(0-inf), ng·h/mL": 5600}
{"compound": "CNC(=O)c1ccc(N2CCN(Cc3cnc4c(C)c(C(F)(F)F)c(=O)[nH]c4c3)C[C@H]2C)cn1 [Compound 54]", "AUC(0-inf), ng·h/mL": 16800}
{"compound": "CNC(=O)c1ccc(N2CCN(Cc3cnc4c(C)c(C(F)(F)F)c(=O)[nH]c4c3)[C@@H](C)C2)cn1 [Compound 52]", "AUC(0-inf), ng·h/mL": 18800}

###

test: in vivo; conditions: male, ICR (CD1), mouse, po, 10 mg/kg
assay_readout: Cmax (µg/mL)

{"molecule": "CNC(=O)c1cnc(C2=CCN(Cc3cnc4c(C)c(C(F)(F)F)c(=O)[nH]c4c3)CC2)cn1 [Compound 79]", "units": "µg/mL", "numeric_value": 57}

###

test: Evaluation of pharmacokinetics in mice; conditions: male, ICR (CD1), mouse, plasma, po, 10 mg/kg

{"compound": "CNC(=O)c1ccc(N2CCN(Cc3cnc4c(C)c(C(F)(F)F)c(=O)[nH]c4c3)CC2)cn1", "units": "µg·h/mL", "AUC(0-inf)": 972}
{"compound": "CNC(=O)c1ccc(N2CCN([C@H](C)c3cnc4c(C)c(C(F)(F)F)c(=O)[nH]c4c3)CC2)cn1", "units": "µg·h/mL", "AUC(0-inf)": 1360}
{"compound": "CNC(=O)c1ccc(C2=CCN(Cc3cnc4c(C)c(C(F)(F)F)c(=O)[nH]c4c3)CC2)cn1", "units": "µg·h/mL", "AUC(0-inf)": 2720}
{"compound": "CNC(=O)c1ccc(N2CCN(Cc3cnc4c(C)c(C(F)(F)F)c(=O)[nH]c4c3)C[C@H]2C)cn1", "units": "µg·h/mL", "AUC(0-inf)": 987}
{"compound": "CNC(=O)c1ccc(N2CCN(Cc3cnc4c(C)c(C(F)(F)F)c(=O)[nH]c4c3)[C@@H](C)C2)cn1", "units": "µg·h/mL", "AUC(0-inf)": 1550}
{"compound": "CNC(=O)c1ccc(N2CCN(Cc3cnc4c(C)c(C(F)(F)F)c(=O)[nH]c4c3)CC2)c(F)n1", "units": "µg·h/mL", "AUC(0-inf)": 796}
{"compound": "CNC(=O)c1ccc(N2CCN(C(C)c3cnc4c(C)c(C(F)(F)F)c(=O)[nH]c4c3)CC2)cn1 (centres unmarked)", "units": "µg·h/mL", "AUC(0-inf)": 1100}
{"compound": "CCc1cc2ncc(CN3CCN(c4ccc(C(=O)NC)nc4)CC3)cc2[nH]c1=O [AZD5305, reference compound]", "units": "µg·h/mL", "AUC(0-inf)": 357}
{"compound": "CNC(=O)c1ccc(N2CCN(Cc3cc4[nH]c(=O)c(C(F)(F)F)c(C)c4cn3)C[C@H]2C)cn1", "units": "µg·h/mL", "AUC(0-inf)": 1650}
{"compound": "[2H]C([2H])([2H])NC(=O)c1ccc(N2CCN(Cc3cnc4c(C)c(C(F)(F)F)c(=O)[nH]c4c3)CC2)cn1", "units": "µg·h/mL", "AUC(0-inf)": 2050}
{"compound": "CNC(=O)c1ccc(N2CCN(Cc3cnc4c(C)c(C(F)(F)F)c(=O)[nH]c4c3)C(C)C2)cn1 (centres unmarked)", "units": "µg·h/mL", "AUC(0-inf)": 1500}

###

Each entry below carries its recorded half-life.
assay: Evaluation of pharmacokinetics in mice; settings: male, ICR (CD1), mouse, plasma, po, 10 mg/kg

{"compound": "CNC(=O)c1ccc(C2=CCN(Cc3cnc4c(C)c(C(F)(F)F)c(=O)[nH]c4c3)CC2)cn1", "half-life / h": 27.8}
{"compound": "CNC(=O)c1ccc(N2CCN(Cc3cnc4c(C)c(C(F)(F)F)c(=O)[nH]c4c3)CC2)cn1", "half-life / h": 17.9}
{"compound": "CNC(=O)c1ccc(N2CCN(C(C)c3cnc4c(C)c(C(F)(F)F)c(=O)[nH]c4c3)CC2)cn1 (stereo not shown)", "half-life / h": 28.7}
{"compound": "CNC(=O)c1ccc(N2CCN(Cc3cnc4c(C)c(C(F)(F)F)c(=O)[nH]c4c3)C[C@H]2C)cn1", "half-life / h": 17.9}

###

experiment: Evaluation of pharmacokinetics in mice; settings: male, ICR (CD1), mouse, plasma, po, 10 mg/kg
Each item that follows carries a reported half-life.
assay_readout: half-life (min)

{"compound": "CNC(=O)c1ccc(N2CCN(Cc3cnc4c(C)c(C(F)(F)F)c(=O)[nH]c4c3)C(C)C2)cn1 (stereo not shown)", "assay_readout": "half-life", "numeric_value": 1130}
{"compound": "[2H]C([2H])([2H])NC(=O)c1ccc(N2CCN(Cc3cnc4c(C)c(C(F)(F)F)c(=O)[nH]c4c3)CC2)cn1", "assay_readout": "half-life", "numeric_value": 2280}
{"compound": "CNC(=O)c1ccc(N2CCN([C@H](C)c3cnc4c(C)c(C(F)(F)F)c(=O)[nH]c4c3)CC2)cn1", "assay_readout": "half-life", "numeric_value": 1210}
{"compound": "CNC(=O)c1ccc(N2CCN(Cc3cnc4c(C)c(C(F)(F)F)c(=O)[nH]c4c3)CC2)c(F)n1", "assay_readout": "half-life", "numeric_value": 1100}

###

Each record here notes measured IC50.
biological target: PARP1 (Homo sapiens (Human), UniProt P09874); test: PARP1 trapping assay; type: biochemical; details: read-out: Inhibitory Effect on PARP1 Trapping IC50
Sequence (P09874 whole entry): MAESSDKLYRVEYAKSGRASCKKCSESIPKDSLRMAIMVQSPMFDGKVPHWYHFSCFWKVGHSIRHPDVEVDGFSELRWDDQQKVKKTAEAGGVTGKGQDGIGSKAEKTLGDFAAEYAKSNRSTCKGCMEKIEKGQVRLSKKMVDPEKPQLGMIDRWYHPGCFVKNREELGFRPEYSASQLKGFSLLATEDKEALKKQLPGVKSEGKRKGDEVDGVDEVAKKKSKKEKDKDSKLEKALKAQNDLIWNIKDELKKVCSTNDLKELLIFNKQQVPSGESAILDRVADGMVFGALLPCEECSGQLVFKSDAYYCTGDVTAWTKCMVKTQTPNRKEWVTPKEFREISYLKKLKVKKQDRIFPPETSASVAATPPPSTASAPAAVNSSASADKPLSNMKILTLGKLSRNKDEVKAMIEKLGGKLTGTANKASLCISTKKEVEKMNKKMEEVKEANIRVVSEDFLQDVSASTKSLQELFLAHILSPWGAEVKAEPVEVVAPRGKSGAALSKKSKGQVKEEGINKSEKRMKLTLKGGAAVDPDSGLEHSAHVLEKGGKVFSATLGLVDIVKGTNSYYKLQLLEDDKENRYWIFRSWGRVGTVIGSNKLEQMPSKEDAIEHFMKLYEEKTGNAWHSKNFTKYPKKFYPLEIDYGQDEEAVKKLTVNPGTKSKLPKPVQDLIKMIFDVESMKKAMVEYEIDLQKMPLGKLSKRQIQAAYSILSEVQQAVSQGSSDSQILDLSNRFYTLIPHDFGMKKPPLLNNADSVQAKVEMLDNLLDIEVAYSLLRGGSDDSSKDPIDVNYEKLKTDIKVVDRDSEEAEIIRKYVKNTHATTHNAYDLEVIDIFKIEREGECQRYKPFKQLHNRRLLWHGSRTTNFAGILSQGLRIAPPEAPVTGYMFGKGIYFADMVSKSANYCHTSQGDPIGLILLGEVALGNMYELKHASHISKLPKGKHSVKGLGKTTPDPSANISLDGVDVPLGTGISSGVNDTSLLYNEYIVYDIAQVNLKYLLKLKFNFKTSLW

{"structure": "CNC(=O)c1ccc(N2CCN(Cc3cnc4c(C)c(C(F)(F)F)c(=O)[nH]c4c3)CC2)c(F)n1", "units": "nM", "IC50": 1.32}
{"structure": "Cc1c(C(F)(F)F)c(=O)[nH]c2cc(CN3CCN(c4ccc(C(=O)NC5CC5)nc4)CC3)cnc12", "units": "nM", "IC50": 1.53}
{"structure": "CNC(=O)c1ccc(C2=CCN(Cc3cc4[nH]c(=O)c(C(F)(F)F)c(C)c4cn3)CC2)cn1", "units": "nM", "IC50": 1.53}
{"structure": "CNC(=O)c1ccc(N2CCN(Cc3cnc4c(C)c(C(F)(F)F)c(=O)[nH]c4c3)[C@@H](C)C2)cn1", "units": "nM", "IC50": 1.6}

###

test: Evaluation of pharmacokinetics in mice; conditions: male, ICR (CD1), mouse, plasma, po, 10 mg/kg

{"compound": "CNC(=O)c1ccc(N2CCN(Cc3cnc4c(C)c(C(F)(F)F)c(=O)[nH]c4c3)[C@@H](C)C2)cn1", "half-life": "25.9 h"}
{"compound": "CNC(=O)c1ccc(N2CCN(Cc3cc4[nH]c(=O)c(C(F)(F)F)c(C)c4cn3)C[C@H]2C)cn1", "half-life": "26.3 h"}
{"compound": "CCc1cc2ncc(CN3CCN(c4ccc(C(=O)NC)nc4)CC3)cc2[nH]c1=O [AZD5305, reference compound]", "half-life": "8.25 h"}

###

experiment: Evaluation of pharmacokinetics in rats; type: in vivo; details: male, SD, rat, plasma, 1 mg/kg, oral gavage (PO, 1 mpk)

{"compound": "CNC(=O)c1ccc(N2CCN(Cc3cnc4c(C)c(C(F)(F)F)c(=O)[nH]c4c3)[C@@H](C)C2)cn1", "Cmax, ng/mL": 1450}
{"compound": "CNC(=O)c1ccc(C2=CCN(Cc3cnc4c(C)c(C(F)(F)F)c(=O)[nH]c4c3)CC2)cn1", "Cmax, ng/mL": 1770}
{"compound": "CNC(=O)c1ccc(N2CCN(Cc3cnc4c(C)c(C(F)(F)F)c(=O)[nH]c4c3)CC2)cn1", "Cmax, ng/mL": 1740}
{"compound": "CNC(=O)c1ccc(N2CCN(Cc3cc4[nH]c(=O)c(C(F)(F)F)c(C)c4cn3)CC2)cn1", "Cmax, ng/mL": 2000}
{"compound": "CNC(=O)c1ccc(N2CCN(Cc3cnc4c(C)c(C(F)(F)F)c(=O)[nH]c4c3)C[C@H]2C)cn1", "Cmax, ng/mL": 1690}
{"compound": "CCc1cc2ncc(CN3CCN(c4ccc(C(=O)NC)nc4)CC3)cc2[nH]c1=O [AZD5305, reference compound]", "Cmax, ng/mL": 1400}
